Each recorded value in this set is attributed to ChEMBL document CHEMBL4837181.

assay: Chemical stability of compound in PBS buffer assessed as compound remaining at pH 7.4 at 5 uM measured after 6 hrs by LC-MS/MS analysis; type: physicochemical; conditions: read-out: Stabilty
Where a SMILES comes first, the peptide text is derived from it. [ ]: non-standard residue; d: D form. dTrp(1-Me) = Cn1cc(C[C@@H](N)C(=O)O)c2ccccc21
remaining at 6 h, 5 µM values, listed per item
Enter your answer as a number in %; do not include the unit.

Worked examples, 8 compounds total:
Cl.Cn1cc(C[C@@H](NC(=O)CN)C(=O)O)c2ccccc21 (H-Gly-[dTrp(1-Me)]-OH)
83
Cl.Cn1cc(C[C@@H](N)C(=O)OCC(N)C(=O)O)c2ccccc21 (single isomer, unassigned)
0
CC[C@H](C)[C@H](N)C(=O)N[C@H](Cc1cn(C)c2ccccc12)C(=O)O.Cl
100
CCOC(=O)[C@@H](Cc1cn(C)c2ccccc12)NC(=O)[C@@H](N)Cc1ccccc1.Cl
96
CCOC(=O)[C@@H](Cc1cn(C)c2ccccc12)NC(=O)[C@@H](N)[C@@H](C)CC.Cl
97
Cl.Cn1cc(C[C@@H](N)C(=O)OCCC2CCNCC2)c2ccccc21
91
CC(C)C(NC(=O)[C@H](N)Cc1cn(C)c2ccccc12)C(=O)O.Cl (single isomer, unassigned)
99
CC(C)[C@H](N)C(=O)N[C@H](Cc1cn(C)c2ccccc12)C(=O)O.Cl
91

Attention now turns to another entry.
Field request: remaining at 6 h, 5 µM | item: Cl.Cn1cc(C[C@@H](N)C(=O)OCCC2CCOCC2)c2ccccc21
85
